# ASSAY_NOTES: Cytotoxicity against African green monkey Vero cells at 150 uM after 72 hrs by MTT assay
# Type: cell-based
# STUDY_CONDITIONS: chlorocebus sabaeus, Vero cells; read-out: GI
PARAMETER: inhibition at 72 h, 150 µM (%)

>  <COMPOUND>
CC(=O)O[C@@H]1[C@@H](O)[C@H](C)O[C@@H](OC(=O)c2cccc3nc4c(C(=O)O[C@@H]5O[C@@H](C)[C@H](O)[C@@H](O)[C@H]5O)cccc4nc23)[C@@H]1O [SOPHENAZINE B]

>  <TEST_RESULT>
30

$$$$

---

# Tested on: HCT16
# ASSAY_NOTES: Cytotoxicity against human […] cells after 72 hrs by MTT assay
# Type: functional, cell-based
Active and inactive are the calls of the source. No cut-off for these calls is given here.
PARAMETER: Activity

>  <COMPOUND>
C[C@@H]1O[C@@H](OC(=O)c2cccc3nc4c(C(=O)O)cccc4nc23)[C@H](O)[C@H](O)[C@H]1O [IZUMINOSIDE C]

>  <TEST_RESULT>
inactive

$$$$
>  <COMPOUND>
C[C@@H]1O[C@@H](OC(=O)c2cccc3nc4c(O[C@@H]5O[C@@H](C)[C@H](O)[C@@H](O)[C@H]5O)cccc4nc23)[C@H](O)[C@H](O)[C@H]1O [SOPHENAZINE D]

>  <TEST_RESULT>
inactive

$$$$
>  <COMPOUND>
O=C(O)c1cccc2nc3c(C(=O)O)cccc3nc12

>  <TEST_RESULT>
inactive

$$$$
>  <COMPOUND>
COC(=O)c1cccc2nc3c(O[C@@H]4O[C@@H](C)[C@H](O)[C@@H](O)[C@H]4O)cccc3nc12 [SOPHENAZINE E]

>  <TEST_RESULT>
inactive

$$$$
>  <COMPOUND>
C[C@@H]1O[C@@H](Oc2cccc3nc4c(C(=O)O)cccc4nc23)[C@H](O)[C@H](O)[C@H]1O [IZUMINOSIDE A]

>  <TEST_RESULT>
inactive

$$$$

---

# Test system: Vero
# ASSAY_NOTES: Cytotoxicity against African green monkey Vero cells at 150 uM after 72 hrs by MTT assay
# Type: cell-based
# STUDY_CONDITIONS: chlorocebus sabaeus, vero, 72 h, 150 µM
PARAMETER: Activity

>  <COMPOUND>
O=C(O)c1cccc2nc3c(C(=O)O)cccc3nc12

>  <TEST_RESULT>
Non-toxic

$$$$
>  <COMPOUND>
C[C@@H]1O[C@@H](OC(=O)c2cccc3nc4c(C(=O)O)cccc4nc23)[C@H](O)[C@H](O)[C@H]1O [IZUMINOSIDE C]

>  <TEST_RESULT>
Non-toxic

$$$$
>  <COMPOUND>
COC(=O)c1cccc2nc3c(O[C@@H]4O[C@@H](C)[C@H](O)[C@@H](O)[C@H]4O)cccc3nc12

>  <TEST_RESULT>
Non-toxic

$$$$
>  <COMPOUND>
C[C@@H]1O[C@@H](OC(=O)c2cccc3nc4c(O[C@@H]5O[C@@H](C)[C@H](O)[C@@H](O)[C@H]5O)cccc4nc23)[C@H](O)[C@H](O)[C@H]1O

>  <TEST_RESULT>
Non-toxic

$$$$
>  <COMPOUND>
C[C@@H]1O[C@@H](Oc2cccc3nc4c(C(=O)O)cccc4nc23)[C@H](O)[C@H](O)[C@H]1O [IZUMINOSIDE A]

>  <TEST_RESULT>
Non-toxic

$$$$

---

# Test system: Vero
# ASSAY_NOTES: Cytotoxicity against African green monkey Vero cells after 72 hrs by MTT assay
# Format: cell-based
# STUDY_CONDITIONS: Chlorocebus sabaeus
PARAMETER: EC50 (µM)

>  <INPUT_SMILES>
C[C@@H]1O[C@@H](OC(=O)c2cccc3nc4c(C(=O)O[C@@H]5O[C@@H](C)[C@H](O)[C@@H](O)[C@H]5O)cccc4nc23)[C@H](O)[C@H](O)[C@H]1O

>  <TEST_RESULT>
84

$$$$
